Observed GI50, system HCT-15.
Give the number; µM is assumed, so skip it.

O=C(O)CN(CC(=O)O)Cc1cc(C#Cc2ccc(C#Cc3ccccc3)cc2)cc(CN(CC(=O)O)CC(=O)O)n1 5.98
C/C(=N/NC(=S)Nc1cccc(C)c1)c1ccccn1 0.0119
COc1ccc(OC)c(-c2cc(=O)c3c(OC)c(OC)c(OC)c(OC)c3o2)c1 21.3

q: Quick check: GI50 on HCT-15, item CC(=O)O[C@H]1CC(C)(C)C(=C=C/C(C)=C/C=C/C=C/C=C(C)/C=C2C=C(/C=C/[C@@]34O[C@]3(C)C[C@@H](O)CC4(C)C)C(=O)O/2)[C@](C)(O)C1 ?
a: 11

---

- System: OVCAR-8
- test name: NCI tumour cell line growth inhibition, 48 h
The source made the active and inactive calls. Rule as the data show it: active = GI50 up to about 1.1 µM and inactive = higher.
Recorded GI50 by entry

molecule	test target	GI50
COc1ccc(-c2cc(-c3ccc(Nc4ccnc5cc(C(F)(F)F)ccc45)cc3)[nH]c(=O)c2C#N)c2ccccc12	OVCAR-8	> 46.3 µM (inactive)

q: Need GI50, item CON(C)c1nc(N)c(C#N)c(C#N)c1C#N
a: > 10 µM (inactive)

---

- Tested on: NCI-H23
- test name: NCI tumour cell line growth inhibition, 48 h
Calls of active or inactive are those of the source. No stated cut-off is given here; in the data, active = GI50 up to about 1.1 µM and inactive = higher.
Return exactly one item of label 1 for active, label 0 for inactive

molecule	assigned class
C[C@@H](NC(=O)[C@@H]1C[C@]1(C)COC(=O)c1cc([N+](=O)[O-])cc([N+](=O)[O-])c1)c1cccc2ccccc12	label 0
O=C(O)C1C2CC3C(OC(=O)C31)C2Br (stereo not given)	label 0
O=C(O)c1cccc(S(=O)(=O)NN2C(=O)CSC2c2ccc(Cl)cc2Cl)c1 (stereo not given)	label 0
CC1(C)N=C2C(=O)c3c([nH]c4ccccc34)[C@]3(C)CCC1CC23 (stereo not given in full)	label 0
CC1(C)O[C@@H](CP(c2ccccc2)c2ccccc2)[C@H](CP(c2ccccc2)c2ccccc2)O1	label 0

q: Hey, what did the test say about CCC1NC(/N=N/c2ccc([N+](=O)[O-])cc2)(P(=O)(OC(C)C)OC(C)C)OC1=O (stereo not given) ?
a: label 0

---

- Test system: SK-MEL-2
- test name: NCI tumour cell line growth inhibition, 48 h
The source made the active and inactive calls. No stated cut-off is given here; in the data, active = GI50 up to about 1.1 µM and inactive = higher.
recorded metric: GI50

compound	test target	GI50
COc1cc(C2c3cc4c(cc3[C@@H](OCCN(C)C)C3COC(=O)[C@H]23)OCO4)cc(OC)c1O (some centres undefined)	SK-MEL-2	1.29 µM (inactive)
CC(C)C12Cc3c(ccc4ccccc34)OC1(C)Oc1ccc3ccccc3c1C2 (centres undefined)	SK-MEL-2	> 100 µM (inactive)
CC(=O)O[C@H]1CC(C)(C)C(=C=C/C(C)=C/C=C/C=C/C=C(C)/C=C2C=C(/C=C/[C@@]34O[C@]3(C)C[C@@H](O)CC4(C)C)C(=O)O/2)[C@](C)(O)C1	SK-MEL-2	3.31 µM (inactive)

// switching to the query compound
q: Form field: reported GI50 of O=c1c2ccccc2sc2cccc(NCCCN3CCN(CCCNc4cccc5sc6ccccc6c(=O)c45)CC3)c12
a: > 100 µM (inactive)

---

- System: SW-620
- test name: NCI tumour cell line growth inhibition, 48 h
Active and inactive are the calls of the source. Rule as the data show it: active = GI50 up to about 1.1 µM and inactive = higher.
Respond with a class label; see T (active), F (inactive)

Check out these entries, answers already filled in.
compound	assigned class
CC1(C)N=C2C(=O)c3c([nH]c4ccccc34)[C@]3(C)CCC1CC23 (some centres undefined)	F
COc1ccc(C[C@H]2COC(=O)[C@@H]2Cc2ccc(O)cc2)cc1OC	F
CC(C)(C)OC(=O)/C=C/C(=O)O/C=C/[N+](=O)[O-]	F
NCC(=O)OCN1C(=O)C2C3C=CC(C2C1=O)C1C2C(=O)N(COC(=O)CN)C(=O)C2C31 (centres undefined)	F
O=C1Nc2ccccc2Nc2nc3cccccc-3c21	F
COC/C=C\COC	F
COc1cc(/C=[N+](\[O-])c2ccccc2Cl)ccc1OC(=S)S	F
C=CC[C@H](C)CCC(=O)N1[C@H]2CC3CC[C@@]2(CS1(=O)=O)C3(C)C	F

Please look at the following compound next.
q: What classification did CC(=O)O[C@H]1C(=O)[C@@]2(C)[C@H]([C@H](OC(=O)c3ccccc3)[C@]3(O)C[C@H](OC(=O)[C@H](O)[C@@H](NC(=O)c4ccccc4)c4cccc(N(C)C)c4)C(C)=C1C3(C)C)[C@]1(OC(C)=O)CO[C@@H]1C[C@@H]2O end up with in this test?
a: T

---

- Tested on: HT-29
- test name: NCI tumour cell line growth inhibition, 48 h
The source made the active and inactive calls. Rule as the data show it: active = GI50 up to about 1.1 µM and inactive = higher.
Classes to choose from: label 1 = active, label 0 = inactive

compound	assigned class
O=C(NCCCCCN1CCC2(CCCCC2)CC1)C(C1CCCCC1)C1CCCCC1	label 0
CCC1NC(/N=N/c2ccc([N+](=O)[O-])cc2)(P(=O)(OC(C)C)OC(C)C)OC1=O (stereo not given)	label 0

Below: the item to evaluate.
q: Which outcome did this test record for the compound COc1c(Cl)c2c(c(OC)c1OC)-c1ccc(OC)c(=O)c(Cl)c1C(NC(C)=O)CC2 (stereo not given) ?
a: label 1

---

The compounds listed here are annotated with their GI50.
- Tested on: SK-OV-3
- test name: NCI tumour cell line growth inhibition, 48 h
Active and inactive are the calls of the source. Rule as the data show it: active = GI50 up to about 1.1 µM and inactive = higher.

Solved cases below.
compound	test target	GI50
CCOC(=O)N[C@@H]1C2CC(=O)C(O2)[C@@H]1OC (some centres undefined)	SK-OV-3	> 100 µM (inactive)
CC(C)(C)c1cc(COc2c3sc(=S)sc3c(OCc3cc(C(C)(C)C)cc(C(C)(C)C)c3)c3sc(=S)sc23)cc(C(C)(C)C)c1	SK-OV-3	> 100 µM (inactive)
Cc1ccc(NC(=O)C(=O)C(C#N)c2nc(-c3ccc(-c4ccccc4)cc3)cs2)c(C)c1 (centres undefined)	SK-OV-3	> 100 µM (inactive)

q: Which GI50 value belongs to C[C@H]1[C@H](C)CC[C@]2(C)CC[C@]3(C)C(=C[C@@H](O)[C@@H]4[C@@]5(C)[C@H](O)[C@@H](O)[C@H](O)C(C)(C)[C@@H]5CC[C@]43C)[C@H]12 ?
a: > 100 µM (inactive)

q: Request the reported GI50 associated with C=CCOCn1cnc2c(=O)[nH]c(N)nc21
a: > 100 µM (inactive)

q: Looking for the measured GI50 of Fc1ccc(C2SCc3nc4ccccc4n32)cc1 (centres undefined) , can you help?
a: 94.6 µM (inactive)

---

- System: SK-MEL-5
- test name: NCI tumour cell line growth inhibition, 48 h
The source made the active and inactive calls. Rule as the data show it: active = GI50 up to about 1.1 µM and inactive = higher.
Reported GI50 values for the following molecules.

Use the examples below as a reference point.
molecule	data value
Cn1c(=O)c2nc(CCCCc3nc4ccccc4[nH]3)[nH]c2n(C)c1=O	> 100 µM (inactive)
O=C1C[C@H](c2ccccc2)C2(C(=O)c3ccccc3C2=O)[C@H](c2ccccc2)C1	63.1 µM (inactive)
Cc1cc(=O)n2nc(SCc3ccccc3)sc2n1	43.2 µM (inactive)
Nc1ccc2c(c1)C(=O)c1c(F)cccc1-2	25.5 µM (inactive)
O=C(O)C1C2CC3C(OC(=O)C31)C2Br (stereo unspecified)	> 100 µM (inactive)
CN(C)C1(N(C)C)Oc2c(c(=O)n(C)c(=O)n2C)C(c2ccccc2Br)C1(F)F (stereo unspecified)	> 100 µM (inactive)

q: If you can, please state the reported GI50 value of COc1ccc2c(c1)CC[C@@H]1C2CC[C@]2(C)C(=O)N(C)C(=O)CC12 (stereo partly specified) .
a: > 100 µM (inactive)

q: Which GI50 is reported for this molecule? C=CCOCn1cnc2c(=O)[nH]c(N)nc21
a: > 100 µM (inactive)

q: Any idea what GI50 was measured for CC(C)c1cc(CN(C)C)c(O)c(C(C)(C)C)c1 ?
a: 14.9 µM (inactive)

q: GI50 lookup needed for COc1cccc(/N=C/c2cc(OC)c(OC)c(OC)c2)c1 , thanks.
a: 16.8 µM (inactive)

q: // returns reported GI50 for input O=C1c2ccccc2-c2c1c1ccccc1c(=O)n2Cc1ccccc1
a: 73.6 µM (inactive)

q: Can you share its GI50? I mean this molecule: CCOC(=O)c1cc(Br)c(-c2onc(C)c2Br)[nH]1
a: 42.1 µM (inactive)

---

- System: LOX IMVI
- test name: NCI tumour cell line growth inhibition, 48 h
The source made the active and inactive calls. Rule as the data show it: active = GI50 up to about 1.1 µM and inactive = higher.
Each record here notes measured GI50.

q: Quick one: GI50 of CCNC(=O)COc1ccc(Br)cc1Br ?
a: > 100 µM (inactive)

q: Quick check: GI50 of CCOC(=O)N[C@@H]1C2CC(=O)C(O2)[C@@H]1OC (stereo partly specified) ?
a: > 100 µM (inactive)

---

Measured GI50 accompanies every entry in the list below.
- Test system: SF-268
- test name: NCI tumour cell line growth inhibition, 48 h
The source made the active and inactive calls. No stated cut-off is given here; in the data, active = GI50 up to about 1.1 µM and inactive = higher.

compound	GI50
Cc1cc(C(=O)CBr)c(CN2C(=O)c3ccccc3C2=O)c(=O)n1C	24.4 µM (inactive)

Next compound, GI50 to be filled in.
q: Look up GI50 for this compound: CCOC(=O)C(=O)Nc1ccc(Cl)c(C(F)(F)F)c1
a: > 100 µM (inactive)
